# protocolDescription: protein stability index of a GFP-peptide fusion (GPS, HEK-293T) (PSI 1-6); higher = more stable;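 note: 24-mer peptide tiles fused after GFP, lentivirally expressed, FACS-sorted into six equal bins by GFP/DsRed ratio, decoded by Illumina sequencing, PSI is the read-weighted mean bin number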
# experimentalParameters: treatment: MLN4924 1 uM, 8 h; c terminus: a fixed tail appended
So basically: protein stability index at 4 or higher? That is yes. Lower than 4? That is no.

>>> answerlabel("NIPERASGPEGNLNQIVTEPDANF [FAM104B]")
"yes"
>>> answerlabel("VEEQLAQLRCEMEQQNQEYKILLD [KRT17]")
"yes"
>>> answerlabel("GVRVNNRFELINIDDLEDDPVVNG [TCF25]")
"yes"
>>> answerlabel("VMRTKSSEKAANDDHSVRVAREDV [CPXM2]")
"yes"
>>> answerlabel("CYAAMKKKIYAMGGGSYGKLFESV [GAN]")
"no"
>>> answerlabel("RLLLAESGLSFITFICYVASSASA [CMTM3]")
"no"
>>> answerlabel("QSPVSPQPPAITQVHRQGERRREL [SMTNL2]")
"yes"
>>> answerlabel("ASSMLRKSQLGFLNVTNYCHLAHE [DCAF4]")
"no"
>>> answerlabel("ILVSVAAGVSLSTLEELLPPNTRV [PYCR3]")
"no"
>>> answerlabel("EEPELVFTLGDCDVIQALDLSVPL [FKBP8]")
"no"
>>> answerlabel("GRSGWPAGGAPGSPIPSPPGPGDD [HES6]")
"yes"
>>> answerlabel("DYSFLSLGVYSALREIAFTRQLHE [ATE1]")
"no"
>>> answerlabel("SLHDGSDGLDGISVGSYLDTLADD [LURAP1L]")
"yes"
>>> answerlabel("LQNEVPPQPDPVFLEALSSRYLGD [SERTAD3]")
"yes"
>>> answerlabel("DSMPQDLSEALKEATKEVHTQAEN [HMOX1]")
"yes"
>>> answerlabel("RDPPRPGPSRPAEKPPRPEAKSAQ [GCH1]")
"yes"
>>> answerlabel("PQKRKPQEQLLECNKLCGRGQSRQ [SLC2A12]")
"yes"
>>> answerlabel("LLGLGVLLFSGGLSESETGPMEEV [PBXIP1]")
"no"
>>> answerlabel("SPSCPEEALAATWEQPWASEVFGP [PXN]")
"no"
>>> answerlabel("KEEGLPEEEPSHVTGREGFPTDAP [ZNF8]")
"yes"
>>> answerlabel("QQCMLEILDTAGTEQFTAMRDLYM [RAP1B]")
"no"
>>> answerlabel("DVARQLGKNNEFSRLVAGEYLSFF [PSD2]")
"no"
>>> answerlabel("LQHTQELFPQWHLPIKIAAIIASL [STEAP1]")
"no"
>>> answerlabel("FKKFIRRDFLLDEANGLLPDDKLT [SPOPL]")
"no"
>>> answerlabel("DNRCKLFDSPSLCSSSTRSVLKRP [CDC25A]")
"no"
>>> answerlabel("AVSAMKCGLLPISPEALSLGEVAY [ADD1]")
"no"
>>> answerlabel("DNEDYPLFRELWRYHFATGVWHQM [KLHDC10]")
"no"
